- target.or.system: Na+/K+-ATPase
- test.name: Na+/K+-ATPase inhibition
- condition.set: read-out: IC50 against Na+/K+-ATPase
measured.parameter: IC50

> print(dat)
                           molecular.string  result
1  C[C@]12CC[C@H](OC(=O)N3CCNCC3)C[C@H]1CC[C@@H]1[C@@H]2CC[C@]2(C)[C@@H](c3ccc(=O)oc3)CC[C@]12O  ~20 nM
